target: human Polq polymerase domain (Homo sapiens, UniProt O75417)
Sequence (O75417 1792-2590): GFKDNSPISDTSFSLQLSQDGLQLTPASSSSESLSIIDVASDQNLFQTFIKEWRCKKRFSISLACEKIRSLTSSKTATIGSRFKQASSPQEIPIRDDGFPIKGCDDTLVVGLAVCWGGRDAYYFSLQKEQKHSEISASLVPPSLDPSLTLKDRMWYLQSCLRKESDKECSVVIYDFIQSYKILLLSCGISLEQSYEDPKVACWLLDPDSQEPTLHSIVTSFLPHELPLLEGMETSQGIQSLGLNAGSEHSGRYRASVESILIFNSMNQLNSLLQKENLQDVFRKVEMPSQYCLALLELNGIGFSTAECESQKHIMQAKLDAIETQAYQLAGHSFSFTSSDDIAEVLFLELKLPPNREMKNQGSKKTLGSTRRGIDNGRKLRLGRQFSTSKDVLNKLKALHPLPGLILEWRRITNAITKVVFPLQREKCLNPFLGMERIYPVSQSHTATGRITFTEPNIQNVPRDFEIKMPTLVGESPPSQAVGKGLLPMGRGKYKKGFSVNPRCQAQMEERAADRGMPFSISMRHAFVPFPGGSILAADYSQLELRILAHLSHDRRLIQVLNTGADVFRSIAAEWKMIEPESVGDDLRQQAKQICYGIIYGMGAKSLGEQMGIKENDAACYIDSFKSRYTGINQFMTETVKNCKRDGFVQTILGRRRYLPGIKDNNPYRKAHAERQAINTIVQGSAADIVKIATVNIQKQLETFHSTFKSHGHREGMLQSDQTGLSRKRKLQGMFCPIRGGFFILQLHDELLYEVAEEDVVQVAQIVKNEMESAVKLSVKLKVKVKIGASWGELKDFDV
testName: Cy5 fluorescence assay of Polq polymerase domain inhibition
Format: biochemical
pIC50: −log10 of the molar value.
Label satisfied when pIC50 is at or above 8; anything below gets not satisfied.

compound	answerLabel
Cc1cc(C(F)(F)F)cc(N2CCNC2=O)c1OC(=O)N(C)c1ccc(F)cc1	not satisfied
CN(C(=O)Oc1c(N2C(=O)NC(O)C2O)cc(C(F)(F)F)cc1C(F)(F)F)c1ccc(F)cc1 (centres unmarked)	satisfied
CN(C(=O)Oc1c(N2CCN(CC3(O)CN(C(=O)OC(C)(C)C)C3)C2=O)cc(C(F)(F)F)cc1C(F)(F)F)c1ccc(F)cc1	satisfied
CN1C(=O)CN(c2cc(C(F)(F)F)cc(C(F)(F)F)c2OC(=O)N(C)c2ccc(F)cc2)C1=O	not satisfied
CN(C(=O)Oc1c(N2CCN(C3CC(O)C3)C2=O)cc(C(F)(F)F)cc1C(F)(F)F)c1ccc(F)cc1 (centres unmarked)	satisfied
CC(=O)N1CCN(CCN2CCN(c3cc(C(F)(F)F)cc(C(F)(F)F)c3OC(=O)N(C)c3ccc(F)cc3)C2=O)CC1	satisfied
